Where these numbers come from: the supplement of paper PMC13380429

tested on: HepG2; assay: cell viability relative to DMSO; higher = less toxic; conditions: 72 h; 10 nM
Kindly supply the reported cell viability values for the records listed here.
One number for each entry, in %.

{"compound": "CCN(CC)CCOC(=O)C1(c2ccc([N+](=O)[O-])cc2)CCCC1 [nitrocaramiphen]", "testedTarget": "HepG2", "cell viability, %": 97.2}

Each compound below has a reported value. Please supply its cell viability.
1. COc1ccc2nc3cc(Cl)ccc3c(Nc3cc(CN4CCCC4)c(O)c(CN4CCCC4)c3)c2n1 [pyronaridine]
2. CC(C)C[C@H](NC(=O)CNC(=O)c1cc(Cl)ccc1Cl)B(O)O [ixazomib]
3. C=CCc1cccc(/C=N/NC(=O)CN2CCN(Cc3ccccc3)CC2)c1O [PAC-1]
4. CO[C@H]1/C=C/O[C@@]2(C)Oc3c(C)c(O)c4c(O)c(cc(O)c4c3C2=O)NC(=O)/C(C)=C\C=C\[C@H](C)[C@H](O)[C@@H](C)[C@@H](O)[C@@H](C)[C@H](OC(C)=O)[C@@H]1C [rifamycin-sv]

Reply:
[87, 105, 105, 92.7]

###

Field: cell viability. Provide a value for each of the compounds that follow.
tested on: HepG2; experiment: cell viability relative to DMSO; higher = less toxic; details: 72 h; 10 nM
Numbers only, in %.

{"compound": "COC[C@H](C)Oc1cc(O[C@@H](C)Cc2ccccc2)cc(C(=O)Nc2ccc(C(=O)O)cn2)c1 [GKA-50]", "valueUnit": "%", "cell viability": 105}
{"compound": "Nc1nc(CC(=O)Nc2ccc(CCNC[C@H](O)c3ccccc3)cc2)cs1 [mirabegron]", "valueUnit": "%", "cell viability": 96.6}
{"compound": "CCCCOc1ccc(C(=O)CCN2CCCCC2)cc1 [dyclonine]", "valueUnit": "%", "cell viability": 93.3}
{"compound": "Cc1ccc(CC2(O)CCN(CCOc3ccc(O)cc3)CC2)cc1", "valueUnit": "%", "cell viability": 90.4}

# per-item lookup of cell viability; items listed below
1. CCCCCCCCCCCCCCCc1cccc(OCC(=O)NCCO)c1 [PDP-EA]
2. O=C(c1ccc(-c2ccc(Cl)cc2)o1)N(Cc1ccccn1)c1ccc(N2CCNCC2)cc1 [MK2-IN-1]
3. Clc1ccc(C2=CCC[C@H]3CC[C@@H]2N3)cn1 [UB-165]
4. CCOC(=O)C1=C[C@]2(CC)CCCN3CCc4c(n1c1ccccc41)[C@@H]32 [vinpocetine]
5. Nc1ncn([C@@H]2O[C@H](CO)[C@@H](O)[C@H]2O)c(=O)n1 [azacitidine]
6. C[C@@H](N)c1ccc(C(=O)Nc2ccnc3[nH]ccc23)cc1

Reply:
1: 113; 2: 109; 3: 97; 4: 94; 5: 99.7; 6: 94.4

For each of the compounds below, state cell viability.
1. C=CCN1C[C@H](C(=O)N(CCCN(C)C)C(=O)NCC)C[C@@H]2c3cccc4[nH]cc(c34)C[C@H]21 [cabergoline]
2. Cc1ccc(Cl)cc1N(CC(=O)Nc1c(F)cccc1F)S(C)(=O)=O [FPH1-(BRD-6125)]
3. CCn1cc(-c2ccnc3[nH]c(-c4cccc(CN(C)C)c4)cc23)c(-c2ccc(NC(=O)N(C)C)cc2)n1
4. CCCC(C(=O)OCCN(CC)CC)(c1ccccc1)c1ccccc1 [proadifen]
5. c1ccc(C(NCCNC(c2ccccc2)c2ccccc2)c2ccccc2)cc1 [AMN-082]

Reply:
95.2
107
105
100
92.4

The following compounds each have a reported value; give each one's cell viability.
1. COc1ccccc1CC(=N)N1C[C@@H]2C(=O)CCC(c3ccccc3)(c3ccccc3)[C@@H]2C1
2. COc1c2ccoc2cc2oc(=O)ccc12 [bergapten]
3. COc1ccccc1Oc1c(NS(=O)(=O)c2ccc(C)cn2)nc(-c2ccncc2)nc1OC [SPP301]
4. CCn1cc(C(=O)O)c(=O)c2cnc(N3CCNCC3)nc21 [pipemidic-acid]

Reply:
95.9
85.8
92.6
108
